Data provenance: the NIST ThermoML archive (doi:10.1016/j.jct.2014.02.009)

# Condition Info: 298.15 K; 100 kPa; Liquid; Falling or rolling sphere viscometry
Threshold check on viscosity: at or above 20 mPa·s gives Condition met, strictly below gives Condition not met.

The following molecules have reported results that may help.
                                   molecule         class_name
0  CCCCCC(=O)O.O=C1CCCN1 [γ-butyrolactam hexanoate]  Condition not met
1  O=C1CCCCCN1.O=CO [ε-caprolactam formate]      Condition met

Task: Quick check, viscosity >= 20 mPa·s? CCCCCC(=O)O.O=C1CCCCCN1 [ε-caprolactam hexanoate]
Result: Condition met

Task: Please indicate if the recorded viscosity for CC(=O)O.O=C1CCCN1 [γ-butyrolactam acetate] meets or exceeds 20 mPa·s.
Result: Condition not met

Task: Is viscosity for CC(=O)O.O=C1CCCCCN1 [ε-caprolactam acetate] at or above 20 mPa·s?
Result: Condition met

Task: Does the reported viscosity for O=C1CCCN1.O=CO [γ-butyrolactam formate] fall at or above the 20 mPa·s mark?
Result: Condition not met
